Assay: Selectivity ratio of IC50 for PI3Kaplha to IC50 for mTOR
value_type: Ratio IC50

Solved entries (count: 4):
CCc1cc(C(F)(F)F)nn1-c1nc(-c2cccc3[nH]ccc23)nc(N2CCOCC2)n1; 57
Clc1cccc(Nc2nc(N3CCOCC3)nc(-n3cccn3)n2)c1; 4.9
Cc1nccn1-c1nc(-c2cnc(N)nc2)nc(N2CCOCC2)n1; 0.06
Cc1ccc(-c2nc(N3CCOCC3)nc(-n3ccnc3C)n2)c2cc[nH]c12; 60

P. CCc1nccn1-c1nc(-c2cccc3[nH]ccc23)nc(N2CCOCC2)n1
Q. Cc1nccn1-c1nc(-c2cccc(O)c2)nc(N2CCOCC2)n1
Task for the reader: decide whether P or Q has the larger Ratio IC50. Refer to your chosen entry by its label in the reply. P

====

Target: Phosphatidylinositol 4,5-bisphosphate 3-kinase catalytic subunit alpha isoform (Homo sapiens)
Sequence (P42336 whole entry, canonical isoform): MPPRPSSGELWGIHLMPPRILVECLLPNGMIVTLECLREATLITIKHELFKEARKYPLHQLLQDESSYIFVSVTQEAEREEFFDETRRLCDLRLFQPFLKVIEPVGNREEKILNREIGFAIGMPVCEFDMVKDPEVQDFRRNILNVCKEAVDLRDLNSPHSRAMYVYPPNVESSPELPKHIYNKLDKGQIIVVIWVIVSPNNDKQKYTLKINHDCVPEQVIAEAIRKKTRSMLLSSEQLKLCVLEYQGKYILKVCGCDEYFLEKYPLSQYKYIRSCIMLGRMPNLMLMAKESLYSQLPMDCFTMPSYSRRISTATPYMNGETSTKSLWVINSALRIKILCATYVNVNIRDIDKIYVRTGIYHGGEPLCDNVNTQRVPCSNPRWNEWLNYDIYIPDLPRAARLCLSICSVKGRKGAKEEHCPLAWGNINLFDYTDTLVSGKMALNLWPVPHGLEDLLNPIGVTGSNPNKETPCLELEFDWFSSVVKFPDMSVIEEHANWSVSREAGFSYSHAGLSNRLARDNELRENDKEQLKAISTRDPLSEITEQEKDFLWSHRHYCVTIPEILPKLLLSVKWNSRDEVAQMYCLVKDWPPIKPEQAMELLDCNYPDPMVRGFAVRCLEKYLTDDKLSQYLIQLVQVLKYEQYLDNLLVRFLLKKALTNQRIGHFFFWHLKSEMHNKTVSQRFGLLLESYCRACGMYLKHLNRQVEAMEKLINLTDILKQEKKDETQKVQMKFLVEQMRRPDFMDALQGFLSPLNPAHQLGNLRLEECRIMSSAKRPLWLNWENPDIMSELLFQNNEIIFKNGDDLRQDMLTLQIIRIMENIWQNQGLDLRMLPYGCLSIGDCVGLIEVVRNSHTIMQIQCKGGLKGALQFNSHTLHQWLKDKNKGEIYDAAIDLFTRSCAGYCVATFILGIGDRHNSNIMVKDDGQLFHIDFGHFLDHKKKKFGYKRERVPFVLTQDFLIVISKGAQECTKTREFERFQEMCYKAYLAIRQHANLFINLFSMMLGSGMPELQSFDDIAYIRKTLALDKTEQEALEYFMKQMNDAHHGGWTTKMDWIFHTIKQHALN
Assay: Inhibition of PI3Kalpha
pIC50: −log10 of the molar value.
value_type: pIC50

Cc1nccn1-c1nc(-c2cnc(N)nc2)nc(N2CCOCC2)n1; 7.60
Clc1cccc(Nc2nc(N3CCOCC3)nc(-n3cccn3)n2)c1; 5.55
Cc1ccc(-c2nc(N3CCOCC3)nc(-n3ccnc3C)n2)c2cc[nH]c12; 5.96
Cc1nccn1-c1nc(-c2cccc(O)c2)nc(N2CCOCC2)n1; 7.28

P. CCc1cc(C(F)(F)F)nn1-c1nc(-c2cccc3[nH]ccc23)nc(N2CCOCC2)n1
Q. CCc1nccn1-c1nc(-c2cccc3[nH]ccc23)nc(N2CCOCC2)n1
Please indicate which item has the smaller measured pIC50: P versus Q Refer to your chosen entry by its label in the reply. P
(P: 5.39, Q: 7.05)

====

Target: Serine/threonine-protein kinase mTOR (Homo sapiens)
Assay: Inhibition of mTOR
value_type: IC50 (nM)

Cc1nccn1-c1nc(-c2cccc(O)c2)nc(N2CCOCC2)n1; 95
Cc1nccn1-c1nc(-c2cnc(N)nc2)nc(N2CCOCC2)n1; 420

A. CCc1nccn1-c1nc(-c2cccc3[nH]ccc23)nc(N2CCOCC2)n1
B. Clc1cccc(Nc2nc(N3CCOCC3)nc(-n3cccn3)n2)c1
C. Cc1ccc(-c2nc(N3CCOCC3)nc(-n3ccnc3C)n2)c2cc[nH]c12
D. CCc1cc(C(F)(F)F)nn1-c1nc(-c2cccc3[nH]ccc23)nc(N2CCOCC2)n1
E. FC(F)c1nc2ccccc2n1-c1nc(N2CCOCC2)nc(N2CCOCC2)n1 [ZSTK-474]
Would you mind ranking these molecules by ascending IC50? Form field (ranking): labels in requested order. C, A, D, E, B
